Where these numbers come from: patent EP4624482A1

system: SIRT1; assay: SIRT1 expression in HUVECs by western blot; type: cell-based, human; details: 24 hours, read-out: concentration (EC50) that increased the expression of SIRT1 by 50%
MEASURED METRIC: EC50

// compound CCCCCCCCCCCCCC[C@H]1OP(=O)(O)O[C@H]1[C@@H](N)CO.Cl [formula (1a-1), hydrochloride] , assay SIRT1, EC50 value: ~10 nM
